Where do these numbers come from? They come from ChEMBL document CHEMBL1137994.

tested on: Rattus norvegicus; experiment: Alkaline phosphatase enzyme level in serum upon administration of five doses was determined as measure of hepatotoxicity; Normal range = 14-32 KA units; assay type: functional
ASSAY READOUT: Activity (KA Units)
Reply with just the number (in KA Units).

Completed entries (count: 4):
If you can, please state the reported Activity value of "Nc1ccc(/C=C/CSSC/C=C/c2ccc(N)cc2)cc1" .
46.9

If you can, please state the reported Activity value of "O=[N+]([O-])c1ccc(/C=C/CSSC/C=C/c2ccc([N+](=O)[O-])cc2)cc1" .
48

If you can, please state the reported Activity value of "C(=C\c1ccccc1)/CSSC/C=C/c1ccccc1" .
33.6

If you can, please state the reported Activity value of "O=C(O)c1ccc(/C=C/CSSC/C=C/c2ccc(C(=O)O)cc2)cc1" .
32.8

--- query ---
If you can, please state the reported Activity value of "COc1ccc(/C=C/CSSC/C=C/c2ccc(OC)cc2)cc1" .
25.2

----------
tested on: Rattus norvegicus; assay: Percent decrease in weight of cholesterol in liver wet tissue after treatment with compound at 20 mg/kg dose for seven days; assay type: functional
Readings of Decrease for the listed compounds
# output: number + unit

Completed entries (count: 6):
If you can, please state the reported Decrease value of "C(=C\c1ccccc1)/CSSC/C=C/c1ccccc1" .
2%

If you can, please state the reported Decrease value of "O=[N+]([O-])c1ccc(/C=C/CSSC/C=C/c2ccc([N+](=O)[O-])cc2)cc1" .
36.5%

If you can, please state the reported Decrease value of "Nc1ccc(/C=C/CSSC/C=C/c2ccc(N)cc2)cc1" .
3.13%

If you can, please state the reported Decrease value of CC[C@H](C)C(=O)O[C@H]1C[C@@H](C)C=C2C=C[C@H](C)[C@H](CC[C@@H]3C[C@@H](O)CC(=O)O3)[C@H]21 [LOVASTATIN] .
42.3%

If you can, please state the reported Decrease value of "COc1ccc(/C=C/CSSC/C=C/c2ccc(OC)cc2)cc1" .
1.2%

If you can, please state the reported Decrease value of C=CCS[S+]([O-])CC=C (configuration not stated) [ALLICIN] .
27.6%

--- query ---
If you can, please state the reported Decrease value of "O=C(O)c1ccc(/C=C/CSSC/C=C/c2ccc(C(=O)O)cc2)cc1" .
13.3%

----------
Readings of Weight for the listed molecules
tested on: Rattus norvegicus; experiment: Weight of cholesterol in liver wet tissue after treatment with compound at 20 mg/kg dose for seven days; format: functional
Reply with just the number (in mg/g).

Completed entries (count: 3):
If you can, please state the reported Weight value of "O=C(O)c1ccc(/C=C/CSSC/C=C/c2ccc(C(=O)O)cc2)cc1" .
4.3

If you can, please state the reported Weight value of "Nc1ccc(/C=C/CSSC/C=C/c2ccc(N)cc2)cc1" .
4.81

If you can, please state the reported Weight value of "C(=C\c1ccccc1)/CSSC/C=C/c1ccccc1" .
4.86

Others:
If you can, please state the reported Weight value of "COc1ccc(/C=C/CSSC/C=C/c2ccc(OC)cc2)cc1" .
4.9

If you can, please state the reported Weight value of C=CCS[S+]([O-])CC=C (configuration not stated) [ALLICIN] .
3.59

If you can, please state the reported Weight value of "O=[N+]([O-])c1ccc(/C=C/CSSC/C=C/c2ccc([N+](=O)[O-])cc2)cc1" .
3.15

If you can, please state the reported Weight value of CC[C@H](C)C(=O)O[C@H]1C[C@@H](C)C=C2C=C[C@H](C)[C@H](CC[C@@H]3C[C@@H](O)CC(=O)O3)[C@H]21 [LOVASTATIN] .
2.84
